# Test system: BDF1 mice, colon carcinoma 38 sc, T/C %
# assay notes: NCI In Vivo Anticancer Drug Screen. Data for tumor model Colon Carcinoma 38 (subcutaneous) in B6D2F1 (BDF1) mice
# protocol conditions: endpoint: median tumor weight (est.); dose: 12.5 mg/kg/injection; schedule: Q07DX002 (ip); vehicle: saline; higher = larger tumour
Records with an inconclusive call do not appear.
recorded endpoint: T/C

| compound | reading |
| --- | --- |
| [CH3][Sn]([CH3])([Cl])[S]CCN | 71 % of control |
| CN(C)c1ncnc2c1ncn2C1OC(CO)C(N)C1O (configuration not stated) | 110 % of control |
| COC1=NCN=C2SC=C(N)N=C12 | 91 % of control |
| Nc1ncn(C2OC(CO)C(O)C2O)c(=O)n1 (configuration not stated) | 69 % of control |
| COc1cc(C2C3=C(CC(C)(C)CC3=O)N(CC(=O)O)C3=C2C(=O)CC(C)(C)C3)ccc1O | 90 % of control |
| NC1CCCCC1N.O=S(=O)([O-])CCCNC1CCCCC1.O=S(=O)([O-])CCCNC1CCCCC1.[Pt+4] | 14 % of control |
| COC(=O)C(Cl)(Cl)N=Nc1c(Cl)cc(Cl)c(C)c1Cl | 118 % of control |
| O=C1C=CC(=O)O1 (tested in a mixture with another compound) | 155 % of control |
| OCCN1CCN(CC/C=C2/c3ccccc3Sc3ccc(Cl)cc32)CC1 | 112 % of control |
| CN(C)CC(Cl)CCl (configuration not stated) | 118 % of control |
| N=C(N)CCCCCCCCC(=N)N | 76 % of control |
| O=C1C=CC(n2cc(F)c(=O)[nH]c2=O)O1 (configuration not stated) | 113 % of control |

Hello, the source for this data is PubChem BioAssay AID212, in case you need it.
